target.desc: UniProtKB P35398
Sequence (P35398 whole entry, the tested form may be a part): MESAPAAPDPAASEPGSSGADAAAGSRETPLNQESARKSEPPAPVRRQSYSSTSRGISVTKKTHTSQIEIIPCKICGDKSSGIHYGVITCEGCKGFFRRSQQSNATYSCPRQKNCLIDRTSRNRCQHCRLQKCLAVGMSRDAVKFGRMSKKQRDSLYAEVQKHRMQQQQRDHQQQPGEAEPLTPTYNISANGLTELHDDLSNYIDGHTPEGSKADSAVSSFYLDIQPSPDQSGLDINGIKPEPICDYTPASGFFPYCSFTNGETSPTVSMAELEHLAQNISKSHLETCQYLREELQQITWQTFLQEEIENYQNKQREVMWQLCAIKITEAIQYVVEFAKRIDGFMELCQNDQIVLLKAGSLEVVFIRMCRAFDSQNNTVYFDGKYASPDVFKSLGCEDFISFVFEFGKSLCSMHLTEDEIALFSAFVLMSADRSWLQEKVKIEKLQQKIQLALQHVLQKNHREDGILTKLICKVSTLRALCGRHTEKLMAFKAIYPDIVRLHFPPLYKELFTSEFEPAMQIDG
test.method.notes: Agonist activity at RORalpha (unknown origin) by Gal4-Luc reporter gene assay
measurement.kind: EC50

Reported EC50 for O=C(N1CC[C@@]2(S(=O)(=O)c3ccc(F)cc3)c3ccc(C(F)(C(F)(F)F)C(F)(F)F)cc3CC[C@@H]12)C1(O)CCS(=O)(=O)CC1 was > 10 µM

* * *

target.desc: Cytochrome P450 2C19 (Homo sapiens)
Sequence (P33261 whole entry): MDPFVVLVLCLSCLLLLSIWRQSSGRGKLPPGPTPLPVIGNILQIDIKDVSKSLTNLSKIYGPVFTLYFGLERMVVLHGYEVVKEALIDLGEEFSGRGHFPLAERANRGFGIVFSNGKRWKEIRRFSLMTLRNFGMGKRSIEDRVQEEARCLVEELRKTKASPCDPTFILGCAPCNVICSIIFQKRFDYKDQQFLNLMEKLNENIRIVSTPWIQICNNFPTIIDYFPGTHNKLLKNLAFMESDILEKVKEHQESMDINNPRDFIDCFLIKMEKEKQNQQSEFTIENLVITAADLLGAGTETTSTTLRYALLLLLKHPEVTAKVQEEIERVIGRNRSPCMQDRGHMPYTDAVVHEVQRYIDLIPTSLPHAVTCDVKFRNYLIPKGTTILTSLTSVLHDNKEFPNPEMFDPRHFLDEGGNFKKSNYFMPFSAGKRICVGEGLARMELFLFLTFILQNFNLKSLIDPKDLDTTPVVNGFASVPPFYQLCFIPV
test.method.notes: Inhibition of recombinant CYP2C19 (unknown origin)
Assay type: ADME
measurement.kind: IC50

Noted for O=C(N1CC[C@@]2(S(=O)(=O)c3ccc(F)cc3)c3ccc(C(F)(C(F)(F)F)C(F)(F)F)cc3CC[C@@H]12)C1(O)CCS(=O)(=O)CC1 : its IC50 reads > 20 µM
